Below are IC50 values measured for hCRTH2 receptor (Homo sapiens (Human)).
Use nM as the unit, but write only the number.

[
  {
    "compound": "CCCNC(=O)N1CCc2c(F)ccc(-c3cc(CC(=O)O)ccc3OCC)c2C1 [Example 439]",
    "reported_metric": "IC50",
    "quantitative_readout": 126
  },
  {
    "compound": "CCOc1cc(CC(=O)O)ccc1-c1ccc(F)c2c1CN(C(=O)/C=C/c1cnn(C)c1)CC2 [Example 339]",
    "reported_metric": "IC50",
    "quantitative_readout": 12.7
  },
  {
    "compound": "COc1ccc(CC(=O)O)cc1-c1ccc(F)c2c1CN(C(=O)CC(c1ccccc1)C(C)C)CC2 (racemic) [Example 264]",
    "reported_metric": "IC50",
    "quantitative_readout": 253
  },
  {
    "compound": "COc1ccc(CC(=O)O)cc1-c1ccc(F)c2c1CN(C(=O)CCCc1ccccc1F)CC2 [Example 45]",
    "reported_metric": "IC50",
    "quantitative_readout": 2.9
  },
  {
    "compound": "O=C(O)COc1ccc(Cl)c(-c2ccc(Cl)c3c2CN(C(=O)OCc2ccccc2)CC3)c1 [Example 178]",
    "reported_metric": "IC50",
    "quantitative_readout": 17.5
  }
]

Query: Determine reported IC50 for O=C(O)Cc1ccc(C(F)(F)F)c(-c2ccc(F)c3c2CN(C(=O)OCc2ccccc2)CC3)c1 [Example 8] ; test system: hCRTH2 receptor (Homo sapiens (Human)).
Sequence (Q9Y5Y4 whole entry): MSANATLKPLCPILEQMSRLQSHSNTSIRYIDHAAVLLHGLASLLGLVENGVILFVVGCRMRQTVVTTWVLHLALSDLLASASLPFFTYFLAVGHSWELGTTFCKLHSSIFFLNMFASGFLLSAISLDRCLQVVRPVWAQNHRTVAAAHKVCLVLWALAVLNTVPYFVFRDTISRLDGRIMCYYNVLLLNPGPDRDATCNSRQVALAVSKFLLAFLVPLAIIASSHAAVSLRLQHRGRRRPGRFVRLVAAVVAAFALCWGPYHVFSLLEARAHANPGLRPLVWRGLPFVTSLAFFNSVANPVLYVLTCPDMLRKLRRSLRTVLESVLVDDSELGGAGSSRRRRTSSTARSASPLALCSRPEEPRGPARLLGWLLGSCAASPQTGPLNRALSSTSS
Reply: 7.31

* * *

# Tested on: eosinophils
# test_details: Eosinophil shape change assay with human plasma
# Format: cell-based
# condition_description: Homo sapiens, Eosinophil, human plasma (50%), PGD2 100 nM activation, antagonistic activity
reported_metric: IC50 (nM)
Supply the numeric figure in nM, leaving out any unit text.

// solved cases for IC50 follow
[
  {
    "compound": "COc1ccc(CC(=O)O)cc1-c1ccc(F)c2c1CN(C(=O)CC1(c3ccccc3)CC1)CC2 [Example 258]",
    "assay_target": "eosinophils",
    "quantitative_readout": 101
  },
  {
    "compound": "COc1ccc(CC(=O)O)cc1-c1ccc(F)c2c1CN(C(=O)CC(C)c1ccccn1)CC2 (racemic) [Example 265]",
    "assay_target": "eosinophils",
    "quantitative_readout": 98
  },
  {
    "compound": "CCOc1cc(CC(=O)O)ccc1-c1ccc(F)c2c1CN(C(=O)OCc1ccccc1F)CC2 [Example 406]",
    "assay_target": "eosinophils",
    "quantitative_readout": 10
  },
  {
    "compound": "CCOc1ccc(CC(=O)O)cc1-c1ccc(F)c2c1CN(C(=O)OC[C@H](C)c1ccccc1)CC2 [Example 374]",
    "assay_target": "eosinophils",
    "quantitative_readout": 28
  },
  {
    "compound": "COc1cc(CC(=O)O)ccc1-c1ccc(F)c2c1CN(C(=O)COCc1ccccc1Cl)CC2 [Example 193]",
    "assay_target": "eosinophils",
    "quantitative_readout": 94
  }
]

Query: Return value of IC50 for input COc1ccc(CC(=O)O)cc1-c1ccc(F)c2c1CN(C(=O)CC(C)(C)c1ccc(F)cc1)CC2 [Example 363] , no commentary.
Reply: 20

Query: Kindly indicate its recorded IC50. Item: COc1ccc(OCC(=O)O)cc1-c1ccc(F)c2c1CN(C(=O)OCc1ccccc1)CC2 [Example 177]
Reply: 539

Query: Return the recorded IC50 value; entry: COc1ccc(CC(=O)O)cc1-c1ccc(Cl)c2c1CN(C(=O)[C@@H]1C[C@H]1c1cccc(F)c1)CC2 [Example 69]
Reply: 78

Query: Return IC50 for the following compound: O=C(O)Cc1ccc(OC(F)(F)F)c(-c2ccc(F)c3c2CN(C(=O)OCc2ccccc2)CC3)c1 [Example 21]
Reply: 64

Query: Identify IC50 associated with the compound COc1ccc(CC(=O)O)cc1-c1ccc(F)c2c1CN(C(=O)CC1CCc3ccccc31)CC2 (racemic) [Example 261]
Reply: 86

Query: Dear colleague, please send me the reported IC50 for CC(C)Oc1ccc(CC(=O)O)cc1-c1ccc(F)c2c1CN(C(=O)OCc1ccccc1)CC2 [Example 22] when you can.
Reply: 38

* * *

# reported IC50; entries follow
# assay_target: hCRTH2 receptor (Homo sapiens (Human))

Worked set:
[
  {
    "compound": "CCOc1ccc(CC(=O)O)cc1-c1ccc(F)c2c1CN(C(=O)CC1CCOc3cc(F)ccc31)CC2 (racemic)",
    "IC50": "0.9 nM"
  },
  {
    "compound": "COc1ccc(CC(=O)O)cc1-c1ccc(F)c2c1CN(C(=O)[C@H](C)c1ccccc1)CC2",
    "IC50": "981 nM"
  },
  {
    "compound": "CCOc1cc(CC(=O)O)ccc1-c1ccc(F)c2c1CN(C(=O)CC1(c3ccccc3)CC1)CC2",
    "IC50": "1 nM"
  },
  {
    "compound": "O=C(O)Cc1ccc(OC(F)(F)F)c(-c2ccc(F)c3c2CN(C(=O)OCc2ccccc2)CC3)c1",
    "IC50": "2.19 nM"
  }
]

Query: Consider the compound COc1ccc(CC(=O)O)cc1-c1ccc(F)c2c1CN(C(=O)CC1(O)CCCCC1)CC2 tested on hCRTH2 receptor (Homo sapiens (Human)); state its IC50.
Reply: 538 nM

Query: // fetch IC50 for COc1ccc(CC(=O)O)cc1-c1cc(F)cc2c1CN(C(=O)[C@@H]1C[C@H]1c1ccccc1)CC2 ; system: hCRTH2 receptor (Homo sapiens (Human))
Reply: 2.7 nM

Query: Recall the reported IC50 of COc1ccc(CC(=O)O)cc1-c1ccc(F)c2c1CN(C(=O)C1CCc3ccccc31)CC2 (racemic) on hCRTH2 receptor (Homo sapiens (Human)) and write it down.
Reply: 202 nM

* * *

Heads up, these compounds all have IC50 values measured for UniProt Q9Y5Y4.
Answer format: numeric, nM implied, no suffix.

Look over these answered cases.
[
  {
    "compound": "COc1ccc(C2(C(=O)O)CC2)cc1-c1ccc(F)c2c1CN(C(=O)[C@@H]1C[C@H]1c1ccccc1)CC2",
    "IC50 (nM)": 50.7
  },
  {
    "compound": "COc1ccc(CC(=O)O)cc1-c1ccc(F)c2c1CN(C(=O)CC1c3ccccc3CCN1C)CC2 (racemic)",
    "IC50 (nM)": 587
  },
  {
    "compound": "COc1ccc(CC(=O)O)cc1-c1ccc(F)c2c1CN(C(=O)CC(C)C1CC1)CC2 (racemic)",
    "IC50 (nM)": 399
  },
  {
    "compound": "CCOc1cc(CC(=O)O)ccc1-c1ccc(F)c2c1CN(C(=O)C1CCc3cccc(OC)c3C1)CC2 (racemic)",
    "IC50 (nM)": 1.8
  },
  {
    "compound": "COc1cc(CC(=O)O)ccc1-c1ccc(F)c2c1CN(C(=O)CCCc1ccccc1F)CC2",
    "IC50 (nM)": 1.28
  },
  {
    "compound": "COc1ccc(CC(=O)O)cc1-c1cc(F)cc2c1CN(C(=O)OCc1ccccc1)CC2",
    "IC50 (nM)": 10.5
  }
]

# context switch: different compound, same IC50
Query: Report IC50 from UniProt Q9Y5Y4 testing of CCOc1ccc(CC(=O)O)cc1-c1ccc(F)c2c1CN(C(=O)OCCC(C)C)CC2
Reply: 7

* * *

# Tested on: eosinophils
# test_details: Eosinophil shape change assay with human plasma
# Type: cell-based
# condition_description: Homo sapiens, Eosinophil, human plasma (50%), PGD2 100 nM activation, antagonistic activity
reported_metric: IC50 (nM)
Please state the figure in nM; there is no need to write the unit.

[
  {
    "smiles_data": "COc1ccc(CC(=O)O)cc1-c1ccc(F)c2c1CN(C(=O)CCCc1ccccc1F)CC2",
    "assay_target": "eosinophils",
    "IC50 [nM]": 64
  },
  {
    "smiles_data": "CCOc1cc(CC(=O)O)ccc1-c1ccc(F)c2c1CN(C(=O)OCc1cccc(F)c1)CC2",
    "assay_target": "eosinophils",
    "IC50 [nM]": 20
  },
  {
    "smiles_data": "COc1ccc(CC(=O)O)cc1-c1ccc(F)c2c1CN(C(=O)C[C@@H](C)c1ccccc1)CC2",
    "assay_target": "eosinophils",
    "IC50 [nM]": 37
  }
]

In the following, a different molecule is considered.
Query: Quote IC50 with test system eosinophils for O=C(O)Cc1ccc(OCC(F)F)c(-c2ccc(F)c3c2CN(C(=O)OCc2ccccc2)CC3)c1
Reply: 44

* * *

The entries below come with measured IC50 values attached.
# Test system: eosinophils
# test_details: Eosinophil shape change assay with human plasma
# Assay type: cell-based
# condition_description: Homo sapiens, Eosinophil, human plasma (50%), PGD2 100 nM activation, antagonistic activity
# unit: nM | format: bare number

Study these solved cases before continuing.
[
  {
    "compound": "CCOc1ccc(CC(=O)O)cc1-c1ccc(F)c2c1CN(C(=O)CC1CCCc3cccnc31)CC2 (racemic)",
    "value_unit": "nM",
    "quantitative_readout": 9
  },
  {
    "compound": "CCOc1ccc(CC(=O)O)cc1-c1ccc(F)c2c1CN(C(=O)CC1COCc3ccccc31)CC2 (stereo not drawn) [Example 209]",
    "value_unit": "nM",
    "quantitative_readout": 13
  },
  {
    "compound": "COc1cc(CC(=O)O)ccc1-c1ccc(F)c2c1CN(C(=O)CCCc1ccccc1F)CC2",
    "value_unit": "nM",
    "quantitative_readout": 97
  },
  {
    "compound": "CCOc1ccc(CC(=O)O)cc1-c1ccc(F)c2c1CN(C(=O)CCc1cccc(C)n1)CC2",
    "value_unit": "nM",
    "quantitative_readout": 21
  },
  {
    "compound": "CCOc1cc(CC(=O)O)ccc1-c1ccc(F)c2c1CN(C(=O)C(C)Cc1ccccn1)CC2 (racemic)",
    "value_unit": "nM",
    "quantitative_readout": 103
  },
  {
    "compound": "COc1ccc(CC(=O)O)cc1-c1ccc(F)c2c1CN(C(=O)CCOc1ccc(F)cc1)CC2",
    "value_unit": "nM",
    "quantitative_readout": 118
  },
  {
    "compound": "CCOc1ccc(CC(=O)O)cc1-c1ccc(F)c2c1CN(C(=O)OCc1cccc(F)c1)CC2",
    "value_unit": "nM",
    "quantitative_readout": 29
  },
  {
    "compound": "COc1cc(CC(=O)O)ccc1-c1ccc(F)c2c1CN(C(=O)CC(C)(C)c1ccccc1)CC2",
    "value_unit": "nM",
    "quantitative_readout": 8
  }
]

Query: Indicate the recorded IC50 value for this compound: COc1cc(CC(=O)O)ccc1-c1ccc(F)c2c1CN(C(=O)CC(C)(C)c1ccc(F)cc1)CC2
Reply: 11

Query: Tell me its IC50 given COc1ccc(CC(=O)O)cc1-c1ccc(F)c2c1CN(C(=O)CCn1nc(C)c3ccccc31)CC2 as the entry.
Reply: 113

Query: Output IC50 of CCOc1ccc(CC(=O)O)cc1-c1ccc(F)c2c1CN(C(=O)CC1COCc3ccccc31)CC2 (racemic) [Example 228]
Reply: 8

Query: Item COc1ccc(OCC(=O)O)cc1-c1ccc(F)c2c1CN(C(=O)[C@@H]1C[C@H]1c1ccccc1)CC2 : provide IC50
Reply: 34

Query: Dear colleague, please send me the reported IC50 for COc1ccc(CC(=O)O)cc1-c1ccc(F)c2c1CN(C(=O)CCc1ccccc1)CC2 when you can.
Reply: 184

Query: Give IC50 for the following compound: CCOc1ccc(CC(=O)O)cc1-c1ccc(F)c2c1CN(C(=O)OCC1CCCC1)CC2
Reply: 266

Query: Dear colleague, please send me the reported IC50 for COc1ccc(CC(=O)O)cc1-c1cc(F)cc2c1CN(C(=O)[C@@H]1C[C@H]1c1ccccc1)CC2 when you can.
Reply: 25

Query: Return reported IC50. Input compound: CCOc1cc(CC(=O)O)ccc1-c1ccc(F)c2c1CN(C(=O)OCC1CCCCC1)CC2
Reply: 15

Query: Could you please provide reported IC50 for O=C(O)Cc1ccc(OCC(F)(F)F)c(-c2ccc(F)c3c2CN(C(=O)OCc2ccccc2)CC3)c1 ? Thanks!
Reply: 16

Query: Return the recorded IC50 value; entry: CCOc1ccc(CC(=O)O)cc1-c1ccc(F)c2c1CN(C(=O)CC1CCOc3cc(F)ccc31)CC2 (racemic)
Reply: 26

Query: Quickly give me recorded IC50 for COc1ccc(CC(=O)O)cc1-c1ccc(F)c2c1CN(C(=O)CC1CCOc3cc(F)ccc31)CC2 (racemic)
Reply: 92

Query: Give me measured IC50, please, for this compound: O=C(O)Cc1ccc(Cl)c(-c2ccc(F)c3c2CN(C(=O)[C@@H]2C[C@H]2c2ccccc2)CC3)c1
Reply: 42

Query: Return IC50 for the following compound: CCOc1ccc(CC(=O)O)cc1-c1ccc(F)c2c1CN(C(=O)CC1COc3ccccc3C1)CC2 (racemic)
Reply: 15
